Hello, the source for this data is patent EP4772514A1, in case you need it.

- System: NCI-H441 cells
- PROTOCOL SUMMARY: 3D cell proliferation assay (CellTiter Glo-3D) in NCI-H441 cells
- Type: cell-based
- TEST PARAMETERS: Homo sapiens, NCI-H441, 120 h, NCI-H441, human lung cancer cell strain, KRAS G12V mutation; 3D culture, 2% FBS, 5 days; read-out: H441 AP IC50
pIC50: −log10 of the molar value.
READOUT: pIC50

COMPOUND	RECORDED RESULT
CCn1cc2c(c1-c1cc(N3CCN(C)CC3)cnc1[C@H](C)OC)CC(C)(C)COC(=O)[C@@H]1CCCN(N1)C(=O)[C@@H](NC(=O)[C@H]1[C@H](C)[C@@H]1C)Cc1nc(cs1)/C=C/2 (single isomer, unassigned) [Compound Z8]	8.62
CCn1cc2c(c1-c1cc(C#CCN3CCCOCC3)cnc1[C@H](C)OC)CC(C)(C)COC(=O)[C@@H]1CCCN(N1)C(=O)[C@@H](NC(=O)[C@H]1[C@H](C)[C@@H]1C)Cc1nc(cs1)/C=C/2 (atropisomer, axis not shown; (Ra)) [Compound Z69]	9.24
CCn1c(F)c2c(c1-c1cc(C#CCN3CCS(=O)(=O)CC3)cnc1[C@H](C)OC)CC(C)(C)COC(=O)[C@@H]1CCCN(N1)C(=O)[C@@H](NC(=O)[C@H]1[C@H](C)[C@@H]1C)Cc1nc(cs1)/C=C/2 (atropisomer, axis not shown; (Ra)) [Compound Z80]	9.74
CCn1c(-c2cc(N3CCN(C)CC3)cnc2[C@H](C)OC)c2c3cc(ccc31)NC(=O)OC[C@H](NC(=O)[C@H]1[C@H](C)[C@@H]1C)C(=O)N1CCC[C@H](N1)C(=O)OCC(C)(C)C2 (single isomer, unassigned) [Compound Z2-1]	6.43
CCn1cc2c(c1-c1cc(C#CCN3CCC(C#N)CC3)cnc1[C@H](C)OC)CC(C)(C)COC(=O)[C@@H]1CCCN(N1)C(=O)[C@@H](NC(=O)[C@H]1[C@H](C)[C@@H]1C)Cc1nc(cs1)/C=C/2 (atropisomer, axis not shown; (Ra)) [Compound Z49]	9.85
CCn1nc2c(c1-c1cc(C#CCN3CCS(=O)(=O)CC3)cnc1[C@H](C)OC)CC(C)(C)COC(=O)[C@@H]1CCCN(N1)C(=O)[C@@H](NC(=O)[C@H](C(C)C)N(C)c1ccc3ncn(C)c3c1)Cc1nc(cs1)/C=C/2 (atropisomer, axis not shown; (Ra)) [Compound Z115]	7.72

[I] CCn1cc2c(c1-c1cc(C#CCN3CCC3)cnc1[C@H](C)OC)CC(C)(C)COC(=O)[C@@H]1CCCN(N1)C(=O)[C@@H](NC(=O)[C@H]1[C@H](C)[C@@H]1C)Cc1nc(cs1)/C=C/2 (atropisomer, axis not shown; (Ra)) [Compound Z70]
[II] CO[C@@H](C)c1ncc(C#CCN2CCS(=O)(=O)CC2)cc1-c1c2c(cn1C1CCCC1)/C=C/c1csc(n1)C[C@H](NC(=O)[C@H]1[C@H](C)[C@@H]1C)C(=O)N1CCC[C@H](N1)C(=O)OCC(C)(C)C2 (atropisomer, axis not shown; (Ra)) [Compound Z125]
**Q:** // select label with min value of measured pIC50 from [ I , II ] Pick one and reply with its label.
**A:** I
(I: 8.95, II: 9.44)

[I] CCn1cc2c(c1-c1cc(C#CCN3CCS(=O)(=O)CC3)cnc1[C@H](C)OC)CC(C)(C)COC(=O)[C@@H]1CCCN(N1)C(=O)[C@@H](NC(=O)[C@H]1[C@H](C)[C@@H]1C)Cc1nc(cs1)/C=C/2 (atropisomer, axis not shown; (Ra)) [Compound Z118]
[II] CCn1nc2c(c1-c1cc(C#CCN3CCC(C#N)CC3)cnc1[C@H](C)OC)CC(C)(C)COC(=O)[C@@H]1CCCN(N1)C(=O)[C@@H](NC(=O)[C@H]1[C@H](C)[C@@H]1C)Cc1nc(cs1)/C=C/2 (atropisomer, axis not shown; (Ra)) [Compound Z73]
**Q:** // select label with min value of measured pIC50 from [ I , II ] Pick one and reply with its label.
**A:** II

[P] CCn1cc2c(c1-c1cc(C#CCN3CCC(C#N)(CN)CC3)cnc1[C@H](C)OC)CC(C)(C)COC(=O)[C@@H]1CCCN(N1)C(=O)[C@@H](NC(=O)[C@H]1[C@@H]3COC[C@@H]31)Cc1nc(cs1)/C=C/2 (atropisomer, axis not shown; (Ra)) [Compound Z66]
[Q] CO[C@@H](C)c1ncc(C#CCN2CCS(=O)(=O)CC2)cc1-c1c2c(cn1C(C)C)/C=C/c1csc(n1)C[C@H](NC(=O)[C@H]1[C@H](C)[C@@H]1C)C(=O)N1CCC[C@H](N1)C(=O)OCC(C)(C)C2 (single isomer, unassigned) [Compound Z10]
**Q:** // select label with min value of measured pIC50 from [ P , Q ] Pick one and reply with its label.
**A:** Q
(Q: 9.38, P: 9.74)

[A] CCn1c(F)c2c(c1-c1cc(C#CCN3CCC(C#N)CC3)cnc1[C@H](C)OC)CC(C)(C)COC(=O)[C@@H]1CCCN(N1)C(=O)[C@@H](NC(=O)[C@H]1[C@H](C)[C@@H]1C)Cc1nc(cs1)/C=C/2 (atropisomer, axis not shown; (Ra)) [Compound Z139]
[B] CCn1cc2c(c1-c1cc(C#CCN3CCOCC3)cnc1[C@H](C)OC)CC(C)(C)COC(=O)[C@@H]1CCCN(N1)C(=O)[C@@H](NC(=O)[C@H]1[C@H](C)[C@@H]1C)Cc1nc(cs1)/C=C/2 (atropisomer, axis not shown; (Ra)) [Compound Z172]
**Q:** // select label with min value of measured pIC50 from [ A , B ] Pick one and reply with its label.
**A:** B

###

- System: NCI-H441 cells
- PROTOCOL SUMMARY: 3D cell proliferation assay (CellTiter Glo-3D) in NCI-H441 cells
- Assay type: cell-based
- TEST PARAMETERS: Homo sapiens, NCI-H441, 120 h, NCI-H441, human lung cancer cell strain, KRAS G12V mutation; 3D culture, 2% FBS, 5 days; read-out: H441 AP IC50
pIC50: −log10 of the molar value.
READOUT: pIC50

# count of solved cases: 2
COMPOUND	pIC50
CCn1c(F)c2c(c1-c1cc(C#CCN3CCOCC3)cnc1[C@H](C)OC)CC(C)(C)COC(=O)[C@@H]1CCCN(N1)C(=O)[C@@H](NC(=O)[C@H]1[C@H](C)[C@@H]1C)Cc1nc(cs1)/C=C/2 (atropisomer, axis not shown; (Ra))	9.25
CCn1nc2c(c1-c1cc(C#CCN3CCS(=O)(=O)CC3)cnc1[C@H](C)OC)CC(C)(C)COC(=O)[C@@H]1CCCN(N1)C(=O)[C@@H](NC(=O)[C@H](C(C)C)N1CCC(C)C1=O)Cc1nc(cs1)/C=C/2 (atropisomer, axis not shown; (Ra))	6.41

[P] CCn1c(-c2cc(C#CCN3CCS(=O)(=O)CC3)cnc2[C@H](C)OC)c2c3cc(ccc31)NC(=O)OC[C@H](NC(=O)[C@H]1[C@H](C)[C@@H]1C)C(=O)N1CCC[C@H](N1)C(=O)OCC(C)(C)C2 (atropisomer, axis not shown; (Ra))
[Q] CCn1nc2c(c1-c1cc(C#CCN3CCS(=O)(=O)CC3)cnc1[C@H](C)OC)CC(C)(C)COC(=O)[C@@H]1CCCN(N1)C(=O)[C@@H](NC(=O)[C@H](C(C)C)N(C)c1ccccc1)Cc1nc(cs1)/C=C/2 (atropisomer, axis not shown; (Ra))
**Q:** Param pair: P , Q . Output: the one whose pIC50 is numerically greater. Pick one and reply with its label.
**A:** Q

###

- Test system: NCI-H441 cells
- PROTOCOL SUMMARY: 3D cell proliferation assay (CellTiter Glo-3D) in NCI-H441 cells
- Type: cell-based
- TEST PARAMETERS: Homo sapiens, NCI-H441, 120 h, NCI-H441, human lung cancer cell strain, KRAS G12V mutation; 3D culture, 2% FBS, 5 days; read-out: H441 AP IC50
READOUT: IC50 (nM)

# count of solved cases: 5
COMPOUND	TARGET SYSTEM	IC50 / nM
CCn1nc2c(c1-c1cc(C#CCN3CCS(=O)(=O)CC3)cnc1[C@H](C)OC)CC(C)(C)COC(=O)[C@@H]1CCCN(N1)C(=O)[C@@H](NC(=O)[C@@H](NC)C(C)C)Cc1nc(cs1)/C=C/2 (atropisomer, axis not shown; (Ra)) [Compound Z56]	NCI-H441 cells	196
CCn1c(OC)c2c(c1-c1cc(C#CCN3CCS(=O)(=O)CC3)cnc1[C@H](C)OC)CC(C)(C)COC(=O)[C@@H]1CCCN(N1)C(=O)[C@@H](NC(=O)[C@H]1[C@H](C)[C@@H]1C)Cc1nc(cs1)/C=C/2 (atropisomer, axis not shown; (Ra)) [Compound Z191]	NCI-H441 cells	7.19
CCn1cc2c(c1-c1cc(C#CCN3CCC(C#N)(CO)CC3)cnc1[C@H](C)OC)CC(C)(C)COC(=O)[C@@H]1CCCN(N1)C(=O)[C@@H](NC(=O)[C@H]1[C@@H]3COC[C@@H]31)Cc1nc(cs1)/C=C/2 (atropisomer, axis not shown; (Ra)) [Compound Z104]	NCI-H441 cells	0.14
CCn1nc2c(c1-c1cc(C#CCN3CCC(C#N)(CN)CC3)cnc1[C@H](C)OC)CC(C)(C)COC(=O)[C@@H]1CCCN(N1)C(=O)[C@@H](NC(=O)[C@H]1[C@H](C)[C@@H]1C)Cc1nc(cs1)/C=C/2 [Compound Z119]	NCI-H441 cells	1.45
CCn1cc2c(c1-c1cc(C#CCN3CCC(C#N)(CN)CC3)cnc1[C@H](C)OC)CC(C)(C)COC(=O)[C@@H]1CCCN(N1)C(=O)[C@@H](NC(=O)[C@H]1[C@H](C)[C@@H]1C)Cc1nc(cs1)/C=C/2 (atropisomer, axis not shown; (Ra)) [Compound Z65]	NCI-H441 cells	0.17

[A] CCn1nc2c(c1-c1cc(C#CCN3CCS(=O)(=O)CC3)cnc1[C@H](C)OC)CC(C)(C)COC(=O)[C@@H]1CCCN(N1)C(=O)[C@@H](NC(=O)[C@@H](OCc1ccccc1)C(C)C)Cc1nc(cs1)/C=C/2 (atropisomer, axis not shown; (Ra)) [Compound Z46]
[B] CCn1cc2c(c1-c1cc(C#CCN3CCS(=O)(=O)CC3)cnc1[C@H](C)OC)CC(C)(C)COC(=O)[C@@H]1CCCN(N1)C(=O)[C@@H](NC(=O)[C@H]1[C@@H]3COC[C@@H]31)Cc1nc(cs1)/C=C/2 (atropisomer, axis not shown; (Ra)) [Compound Z130]
**Q:** // select label with min value of measured IC50 from [ A , B ] Pick one and reply with its label.
**A:** B
(B: 0.41 nM, A: 176 nM)
